Would you mind telling me the reported IC50 of each entry?
- tgt: Muscarinic receptor 2
- assay-summary: Affinity for the muscarinic M2 receptor ([^3 H]quinuclidinyl benzylate binding, rat brain)
- test-context: 0.3 nM ^3 H quinuclidinyl benzylate, 60 min, 25° C., pH 7.5

Asked: Which measured IC50 belongs to O=S(=O)(c1ccc(N2CCCCC2)cc1)N1CC(O)CC1=S (stereo not shown) [Example 5] , tested on Muscarinic receptor 2?
Given back: > 5 µM

Asked: Fill in the recorded IC50 for this compound, with Muscarinic receptor 2 as test system: CCN(CC)c1ccc(S(=O)(=O)N2CC(O)CC2=S)cc1 (stereo not shown) [Example 3]
Given back: > 5 µM

Asked: Missing value: IC50, Muscarinic receptor 2, entry CCN(CC)c1ccc(S(=O)(=O)N2CC(O)CC2=O)cc1 (stereo not shown) [Example 1] . Fill in?
Given back: > 5 µM

Asked: Give IC50 (Muscarinic receptor 2) of the following compound: O=C1CC(O)CN1S(=O)(=O)c1ccc(N2CCCCC2)cc1 (stereo not shown) [Example 4]
Given back: 10 µM

====

Would you kindly list pIC50 for each of these molecules?
- tgt: Muscarinic receptor 1 (Rattus norvegicus)
- Sequence (P08482 1-460): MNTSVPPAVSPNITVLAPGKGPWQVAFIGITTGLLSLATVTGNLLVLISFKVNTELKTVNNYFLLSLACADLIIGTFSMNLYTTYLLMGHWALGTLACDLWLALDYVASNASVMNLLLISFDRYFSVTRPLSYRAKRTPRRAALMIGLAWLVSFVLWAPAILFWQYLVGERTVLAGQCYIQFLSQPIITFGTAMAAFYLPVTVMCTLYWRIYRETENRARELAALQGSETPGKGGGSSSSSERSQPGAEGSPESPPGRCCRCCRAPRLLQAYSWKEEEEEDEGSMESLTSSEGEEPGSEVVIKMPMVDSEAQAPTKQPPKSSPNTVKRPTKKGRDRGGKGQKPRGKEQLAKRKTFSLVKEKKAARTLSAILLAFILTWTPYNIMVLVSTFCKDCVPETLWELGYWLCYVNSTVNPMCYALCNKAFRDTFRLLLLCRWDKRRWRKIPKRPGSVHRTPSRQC
pIC50 is defined as minus the log10 of a concentration measured in mol/L.

Asked: Please look up its pIC50: O=C1CC(O)CN1S(=O)(=O)c1ccc(N2CCCCCC2)cc1 (stereo not drawn)
Given back: 7.21

Asked: I would be grateful if you could share the reported pIC50 for CCN(CC)c1ccc(S(=O)(=O)N2CC(O)CC2=S)cc1 (stereo not drawn) .
Given back: 6.43

Asked: I would be grateful if you could share the reported pIC50 for O=C1CC(O)CN1S(=O)(=O)c1ccc(N2CCCCC2)cc1 (stereo not drawn) .
Given back: 6.25

Asked: Bench note: what pIC50 did CCN(CC)c1ccc(S(=O)(=O)N2CC(O)CC2=O)cc1 (stereo not drawn) show?
Given back: 6.43

Asked: Entry O=S(=O)(c1ccc(N2CCCCC2)cc1)N1CC(O)CC1=S (stereo not drawn) has what pIC50?
Given back: 6.77

Asked: Name the recorded pIC50 for O=S(=O)(c1ccc(N2CCCCCC2)cc1)N1CC(O)CC1=S (stereo not drawn) .
Given back: 7.08

Each recorded value in this set is attributed to patent US5204341A.
